Test system: K562
METHOD_DESCRIPTION: NCI tumour cell line growth inhibition, 48 h
Calls of active or inactive are those of the source. Rule as the data show it: active = GI50 up to about 1.1 µM and inactive = higher.
RESULT_TYPE: GI50

CC[C@]1(Cc2ccc(OC)c(OC)c2)C=[N+]([O-])O[C@H](OCc2ccccc2)[C@@H]1OC(C)=O :: 20.9 µM (inactive)
COC(=O)C1CC2(c3ccccc3)C(=O)c3ccccc3N2O1 (stereo not given) :: 31.8 µM (inactive)
O=C1C=CC[C@H]2O[C@@H](COC(=O)Cc3ccccc3)C[C@H]2O1 :: 55.6 µM (inactive)
NC(Cc1ccc(B(O)O)cc1)C(=O)NC(CO)CO (stereo not given) :: > 100 µM (inactive)

**Q:** Given the compound `CCN(CC)c1ccc2cc(C(=O)Nc3ccccc3)c(=N)oc2c1` , what is its reported GI50?
**A:** > 100 µM (inactive)

Values were extracted from ChEMBL document CHEMBL1201862.
